# System: U2OS
# assayMethodText: Multiplex assay against U2OS
# Assay type: toxicity, cell-based
# conditionDescription: human, 48 h, 1 µM, compound concentration 1 uM, replicate 2
valueKind: Population Pyknosed Nuclei (%)
Please give a number only; it is taken to be in %.

Query :: Form entry - test system: U2OS; read-out: Population Pyknosed Nuclei (%); molecule: `Cc1c(-c2ccc(O)cc2)n(Cc2ccc(OCCN3CCCCCC3)cc2)c2ccc(O)cc12`
Result :: 11

Query :: Missing value: Population Pyknosed Nuclei (%), U2OS, entry `c1cn2cc(-c3ccc4cn[nH]c4c3)nc(Nc3ccc(N4CCOCC4)cc3)c2n1` . Fill in?
Result :: 10

Query :: Provide value of Population Pyknosed Nuclei (%) for this record tested with U2OS: `CN(C)C(=O)/C(C#N)=C/c1ccc(-c2nc3cnc4[nH]ccc4c3n2C2CCCCC2)o1`
Result :: 5

Query :: Could you share what Population Pyknosed Nuclei (%) was measured for Cl.N#Cc1ccc2[nH]cc(CCCCN3CCN(c4ccc5oc(C(N)=O)cc5c4)CC3)c2c1 [VILAZODONE HYDROCHLORIDE] , tested on U2OS?
Result :: 4

Query :: Under U2OS: Population Pyknosed Nuclei (%) value of COc1cccc([C@@H](C)NCCCc2ccccc2Cl)c1.Cl [TECALCET HYDROCHLORIDE] ?
Result :: 9

Query :: # query: Population Pyknosed Nuclei (%) | item `COc1cc(-n2cnc3cc(-c4ccc(Cl)cc4)sc3c2=O)ccc1OCCN1CCCC1` | system: U2OS
Result :: 13

Query :: What reported Population Pyknosed Nuclei (%) corresponds to `COc1ncc(-c2ccc3nccc(-c4ccnnc4)c3c2)cc1NS(=O)(=O)c1ccc(F)cc1F` on U2OS?
Result :: 23

Query :: Hi! What's the reported Population Pyknosed Nuclei (%) for CC(C)NCC(O)COc1ccc(CCOCC2CC2)cc1.Cl (configuration not stated) [BETAXOLOL HYDROCHLORIDE] on U2OS?
Result :: 9

Query :: Could you share what Population Pyknosed Nuclei (%) was measured for `CN1CCN(CCOc2cc(OC3CCOCC3)c3c(Nc4c(Cl)ccc5c4OCO5)ncnc3c2)CC1` , tested on U2OS?
Result :: 15

Query :: Give Population Pyknosed Nuclei (%) (U2OS) of the following molecule: `Cc1cc(C)cc(-c2cnc3cc(Cl)c(-c4cccc(O)c4)cc3c2OCCCN)c1`
Result :: 14

Query :: Query for U2OS: what Population Pyknosed Nuclei (%) does the record show for `Cn1cc(-c2[nH]c3cc(NC(=O)[C@H](N)C4CCCCC4)cc4c3c2C=NNC4=O)cn1` ?
Result :: 28

Query :: Request: Population Pyknosed Nuclei (%), test system U2OS, entry `Cc1csc2c(N[C@@H](C)CN3CCN(S(=O)(=O)c4ccc(Cl)c(Cl)c4)CC3)ncnc12`
Result :: 4

Query :: Param readout = Population Pyknosed Nuclei (%); param system = U2OS; param query = `CNc1nc(NCc2ccc(NS(C)(=O)=O)cc2Cl)cc(-c2ccccn2)n1` ; response: value
Result :: 3

Query :: So what Population Pyknosed Nuclei (%) did `Cc1[nH]c(/C=C2\C(=O)Nc3ccc(S(=O)(=O)N(C)c4cccc(Cl)c4)cc32)c(C)c1C(=O)N1CCN(C)CC1` get with U2OS?
Result :: 5

Query :: Record CN1CCCC(n2nc(Cc3ccc(Cl)cc3)c3ccccc3c2=O)CC1.Cl (configuration not stated) [AZELASTINE HYDROCHLORIDE] : what is its Population Pyknosed Nuclei (%) with U2OS?
Result :: 14

Query :: Lab request: please report Population Pyknosed Nuclei (%) under test system U2OS for `CC(C)(O)CNc1ncc(-c2ccnc(Nc3ccnc(Cl)c3)n2)c(CC2CC2)n1`
Result :: 10

Query :: # query: Population Pyknosed Nuclei (%) | item CN1CCC[C@@H]1CCO[C@](C)(c1ccccc1)c1ccc(Cl)cc1.O=C(O)/C=C/C(=O)O [CLEMASTINE FUMARATE] | system: U2OS
Result :: 9

Query :: Fill in the recorded Population Pyknosed Nuclei (%) for this molecule, with U2OS as test system: `C=CC(=O)Nc1cccc(C(=O)Nc2ccc(Nc3cc(-c4[nH]c(SC)nc4C)ccn3)cc2)c1`
Result :: 8

Query :: Value wanted: Population Pyknosed Nuclei (%) (U2OS) of entry `Cc1nc(-c2ccc(-c3ccc(C(=O)N4CCc5cc6c(cc54)C4(CCN(C)CC4)CO6)cc3)c(C)c2)no1`
Result :: 10

Query :: Recorded Population Pyknosed Nuclei (%) for `CN1CCN(c2ccc(OC(F)(F)F)c(Nc3ncc4c(n3)-c3c(c(C(N)=O)nn3CCO)CC4)c2)CC1` with U2OS, please?
Result :: 27

Query :: What Population Pyknosed Nuclei (%) appears in the records for this molecule with U2OS? CN(C)C(=O)N[C@H]1CC[C@H](CCN2CCN(c3cccc(Cl)c3Cl)CC2)CC1.Cl [CARIPRAZINE HYDROCHLORIDE]
Result :: 10

Query :: Which Population Pyknosed Nuclei (%) is reported with U2OS for this entry: C[C@@H](NCCCc1cccc(C(F)(F)F)c1)c1cccc2ccccc12.Cl [CINACALCET HYDROCHLORIDE] ?
Result :: 15
